Experiment: growth of efflux-deficient E. coli DRC39 – strain DRC39, OD650, 48 h, E. coli filamentation inducers, primary screen (AID 1179);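 also: screen aims at cell division blockers that make cells filament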
Details: E. coli DRC39 delta-acrAB growth, higher = more signal, called active from +8 up or from −8 down
z-score below -0.4 gives Condition not met; z-score at or above it gives Condition met.

Prompt: Item "C=C[C@@H](OC)[C@H](OC(=O)Nc1ccc(OC)cc1)c1ccc(O)c(F)c1" with z-score of -0.4 or above?
Completion: Condition met

Prompt: Item COc1cc(NN2C(C(O)c3cc(OC)c(OC)c(OC)c3)C=CC3C(=O)N(C)C(=O)C32)cc(OC)c1OC (configuration not stated) with z-score of -0.4 or above?
Completion: Condition met

Prompt: Item "C=CCOC(=O)[C@@]1(Cc2ccccc2)C[C@H]2CO[C@H](c3ccc(OC)cc3)N2C1=O" with z-score of -0.4 or above?
Completion: Condition met

Prompt: Item "C=CCNC(=O)[C@@H]1[C@H]2C(=O)O[C@H](c3ccccc3)[C@H](c3ccccc3)N2[C@H](c2ccc(O)cc2)[C@@]12C(=O)N(C(=O)OCCOC)c1ccc(C#CC3=CCCCC3)cc12" with z-score of -0.4 or above?
Completion: Condition met

Prompt: Item "C=CCNC(=O)[C@@H]1[C@H]2C(=O)O[C@H](c3ccccc3)[C@H](c3ccccc3)N2[C@H](c2ccc(OCCO)cc2)[C@@]12C(=O)N(C(=O)OCCOC)c1ccc(C#Cc3ccc(OC)cc3)cc12" with z-score of -0.4 or above?
Completion: Condition not met

Prompt: Item "O=C1O[C@H](c2ccccc2)[C@H](c2ccccc2)N2[C@H]1[C@@H](C(=O)O)[C@]1(C(=O)Nc3ccc(C#CCCO)cc31)[C@H]2c1ccccc1OCCO" with z-score of -0.4 or above?
Completion: Condition not met

Prompt: Item "C=C(/C(=C/C[C@H](OC(C)=O)c1ccc(CO)o1)c1cnc2ccccc2c1)C(C)C" with z-score of -0.4 or above?
Completion: Condition met

====

Molecular target: Follistatin (Homo sapiens)
Experiment: FST protein binding to printed compounds – biochemical, small-molecule microarray, 635/667 nm fluorescence, primary screen (AID 1132)
Conditions: 635 nm fluorescence, higher = more signal
PROPERTY NAME: composite z-score
Note: the reply should be a number with no unit written.

Prompt: Give the measured composite z-score of "CN(C)C(=O)[C@]1(Cc2ccccc2CN=[N+]=[N-])N=C(c2ccc(OCCCO)cc2)O[C@@H]1c1ccccc1" .
Completion: 0.987

Prompt: Give the measured composite z-score of "CCOC(=O)C1=C[C@@H](C(C)(C)C)N(S(=O)(=O)c2ccc(C)cc2)[C@H]1c1cccc2ccccc12" .
Completion: 0.466

Prompt: Give the measured composite z-score of "Oc1ccc2cc[n+](Cc3cc4c(cc3Br)OCO4)cc2c1" .
Completion: -0.145

Prompt: Give the measured composite z-score of "Cc1ccc(S[C@]2(C(=O)NCCN3CCOCC3)CC(=O)N(Cc3ccccc3Cl)[C@@H]2c2ccc(CO)cc2I)cc1" .
Completion: -0.349

Prompt: Give the measured composite z-score of "CCOC(=O)[C@@H]1CCCCN1C(=O)C(=O)OC" .
Completion: 0.479

Prompt: Give the measured composite z-score of CCC1=C2CN(Cc3ccccc3)[C@@H](C(=O)Cc3ccccc3)C2C=CCC1 (some centres not stated) .
Completion: 0.578

Prompt: Give the measured composite z-score of COc1cc(NN2C(C(O)c3ccco3)C=CC3C(=O)N(C)C(=O)C32)cc(OC)c1OC (configuration not stated) .
Completion: -0.0496

Prompt: Give the measured composite z-score of "COC(=O)[C@]1(CCS(=O)(=O)c2ccccc2)N=C(c2ccc(OCCCO)cc2)O[C@@H]1c1ccccc1N=[N+]=[N-]" .
Completion: 1.39

Prompt: Give the measured composite z-score of "CC#CCO[Si](C#Cc1ccccc1)(C(C)C)C(C)C" .
Completion: -0.711

Prompt: Give the measured composite z-score of CC(C)N1CC=CC23O[C@@H]4C=CCCOC(=O)C4[C@H]2C(=O)N(CCCO)[C@@H]3C1=O (some centres not stated) .
Completion: -0.0801

Prompt: Give the measured composite z-score of "COc1cccc(C)c1NC(=O)O[C@H]1[C@H](OC(=O)Nc2ccc3c(c2)OCO3)[C@@H](OC(=O)Nc2ccc3c(c2)OCO3)[C@@H](OC)O[C@@H]1CO" .
Completion: 1.28

Prompt: Give the measured composite z-score of [N-]=[N+]=Nc1ccccc1C[C@]1(C(=O)NCC(O)CO)COC(c2ccc(OCCCO)cc2)=N1 (some centres not stated) .
Completion: -0.0953

Prompt: Give the measured composite z-score of "CCCN1C(=O)[C@@]2(Cc3ccccc31)N=C(c1ccc(OCCCO)cc1)O[C@H]2c1ccccc1" .
Completion: 1.23

Prompt: Give the measured composite z-score of "Cc1ccc(S[C@]2(C(=O)O)CC(=O)N(C3CCCCC3)[C@@H]2c2ccc(CO)cc2I)cc1" .
Completion: 1.19

Prompt: Give the measured composite z-score of "CCCC[C@@H](O)C1=C(COc2ccccc2)C[C@H]2C(=O)N(Cc3ccccc3)C(=O)[C@H]2[C@H]1CO" .
Completion: 0.269

Prompt: Give the measured composite z-score of CC1CC/C=C\[C@H]2OC34C=CCN(Cc5ccccc5)C(=O)[C@H]3N(C(CO)C(C)C)C(=O)[C@@H]4C2C(=O)O1 (some centres not stated) .
Completion: -0.528

Prompt: Give the measured composite z-score of CCCCN1CC=CC23O[C@@H]4/C=C\CCCOC(=O)C4[C@H]2C(=O)N(CCO)[C@@H]3C1=O (some centres not stated) .
Completion: -1.03
